biological target: PI3K α (p110α/p85α) (Homo sapiens, UniProt P42336); construct: purchased Upstate / Millipore Corporation; experiment: PI 3-Kinase (human) HTRF assay, PI3K α; assay type: biochemical; conditions: read-out: PI3K α IC50
Sequence (P42336 whole entry): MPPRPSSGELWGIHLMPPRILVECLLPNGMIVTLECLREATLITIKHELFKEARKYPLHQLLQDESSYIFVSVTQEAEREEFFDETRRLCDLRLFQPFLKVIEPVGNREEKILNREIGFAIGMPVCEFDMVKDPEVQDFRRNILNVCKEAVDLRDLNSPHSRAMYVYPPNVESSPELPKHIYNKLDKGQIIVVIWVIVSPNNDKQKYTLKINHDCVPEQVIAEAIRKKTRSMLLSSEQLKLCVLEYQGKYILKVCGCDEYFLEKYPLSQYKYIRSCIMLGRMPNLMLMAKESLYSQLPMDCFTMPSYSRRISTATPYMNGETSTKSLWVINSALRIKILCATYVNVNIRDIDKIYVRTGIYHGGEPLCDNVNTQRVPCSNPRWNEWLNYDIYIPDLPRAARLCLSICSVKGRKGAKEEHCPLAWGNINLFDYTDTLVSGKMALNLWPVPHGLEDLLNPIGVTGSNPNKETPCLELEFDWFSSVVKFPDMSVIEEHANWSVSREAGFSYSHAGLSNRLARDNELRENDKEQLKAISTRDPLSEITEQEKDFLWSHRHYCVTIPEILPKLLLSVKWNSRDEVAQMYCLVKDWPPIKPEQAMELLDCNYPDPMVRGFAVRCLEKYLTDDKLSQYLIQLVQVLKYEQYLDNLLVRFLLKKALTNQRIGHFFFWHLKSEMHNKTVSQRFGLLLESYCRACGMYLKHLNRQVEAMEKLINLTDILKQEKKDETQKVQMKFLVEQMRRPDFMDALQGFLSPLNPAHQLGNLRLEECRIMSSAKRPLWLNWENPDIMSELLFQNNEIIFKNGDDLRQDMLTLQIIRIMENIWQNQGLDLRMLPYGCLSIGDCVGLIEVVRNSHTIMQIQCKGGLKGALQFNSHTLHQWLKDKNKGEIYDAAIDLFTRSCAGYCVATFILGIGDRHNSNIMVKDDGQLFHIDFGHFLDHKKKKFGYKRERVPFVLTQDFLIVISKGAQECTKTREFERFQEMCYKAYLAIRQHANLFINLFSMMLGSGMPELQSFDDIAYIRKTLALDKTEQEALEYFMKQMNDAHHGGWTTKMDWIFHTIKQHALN
Sequence (P27986 whole entry partner): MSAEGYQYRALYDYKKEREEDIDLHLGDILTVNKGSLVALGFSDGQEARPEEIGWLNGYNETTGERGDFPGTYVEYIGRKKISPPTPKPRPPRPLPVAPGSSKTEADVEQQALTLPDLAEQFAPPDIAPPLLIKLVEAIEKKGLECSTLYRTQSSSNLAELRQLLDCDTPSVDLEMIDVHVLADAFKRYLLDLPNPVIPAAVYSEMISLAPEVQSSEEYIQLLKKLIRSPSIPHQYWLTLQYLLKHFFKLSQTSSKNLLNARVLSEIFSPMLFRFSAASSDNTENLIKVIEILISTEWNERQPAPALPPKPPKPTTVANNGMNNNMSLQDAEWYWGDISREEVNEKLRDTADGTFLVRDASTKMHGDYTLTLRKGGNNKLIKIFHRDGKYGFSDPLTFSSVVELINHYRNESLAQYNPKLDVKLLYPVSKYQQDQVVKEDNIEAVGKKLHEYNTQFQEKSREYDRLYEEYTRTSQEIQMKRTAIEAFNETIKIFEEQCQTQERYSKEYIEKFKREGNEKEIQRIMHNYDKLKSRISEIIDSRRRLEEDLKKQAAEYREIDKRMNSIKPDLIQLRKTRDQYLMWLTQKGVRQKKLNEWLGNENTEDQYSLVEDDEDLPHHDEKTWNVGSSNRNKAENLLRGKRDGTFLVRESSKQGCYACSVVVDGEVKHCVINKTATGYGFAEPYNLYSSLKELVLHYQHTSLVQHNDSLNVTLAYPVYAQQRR
quantityName: IC50

molecule="Nc1nc2cc(-c3ccc4ncc(NC5CCOCC5)nc4c3)ccc2o1 [Compound 96]" targetdesc="PI3K α (p110α/p85α) (Homo sapiens, UniProt P42336)" result="< 100 nM"
molecule="CN1CCN(c2ncnc3ccc(-c4ccc5oc(N)nc5c4)cc23)CC1 [Compound 23]" targetdesc="PI3K α (p110α/p85α) (Homo sapiens, UniProt P42336)" result="< 100 nM"
molecule="Nc1nc2cc(-c3ccc4ncc(C(=O)N5CC(N6CC[C@H](O)C6)C5)n4c3)ccc2o1 [Compound 469]" targetdesc="PI3K α (p110α/p85α) (Homo sapiens, UniProt P42336)" result="< 100 nM"

# input Entry Nc1nc2cc(-c3cc4nccc(-c5ccncc5)c4s3)ccc2o1 [Compound 14] : reported IC50 = ?
# output < 10000 nM

Source: patent US20150087627A1
